Give IC50 for every item shown.
Give the value, in units of µM, as a plain number.

Print human CB1 receptor (Homo sapiens) IC50 for Cc1c(C(C)(C)C)s/c(=N\C(=O)c2ncccc2Br)n1CC1CC1 .
0.372

Look up and report IC50, with human CB1 receptor (Homo sapiens) as system, for COc1ccc(Cl)cc1C(=O)/N=c1\sc(C(C)(C)C)c(C)n1CC1CC1
0.1

Give measured IC50 for COCCn1c(C)c(C)s/c1=N\C(=O)c1cccc(C(F)(F)F)c1F (human CB1 receptor (Homo sapiens)).
0.327

Find the measured IC50 of Cc1c(C(C)(C)C)s/c(=N\C(=O)c2ccccc2N2CCOCC2)n1CC1CC1 with human CB1 receptor (Homo sapiens) as test system.
0.46

----------
Answer each item with its documented melting point.

Answer with the recorded melting point of COCCn1/c(=N/C(=O)c2cccc(C(F)(F)F)c2F)cc(C)n1C only.
144 to 145 °C

Let me know recorded melting point for Cc1c(C(C)(C)C)s/c(=N\C(=O)c2cc(F)cc(C(F)(F)F)c2)n1CC1CC1 , thanks.
100 to 102 °C

Given the compound O=C(/N=c1\ccc(-c2ccccc2)cn1CC1CC1)c1cccc(C(F)(F)F)c1F , write its reported melting point.
115 to 116 °C

Give reported melting point value for Cc1c/c(=N\C(=O)c2cccc(C(F)(F)F)c2F)n(CC2CC2)c(C)c1Br
121 to 122 °C

Return melting point (reported value) for this compound: O=C(/N=c1\ccc(F)cn1CC1CC1)c1cccc(C(F)(F)F)c1F
89 to 91 °C

Report measured melting point; entry is Cc1c(C(C)(C)C)s/c(=N\C(=O)c2cc(Br)ccc2OC(F)F)n1CC1CC1
169 to 170 °C

Specify melting point for Cc1cn(CC2CC2)/c(=N/C(=O)c2cccc(C(F)(F)F)c2F)s1 and stop.
129 to 130 °C

Given CCn1c(C)c(C(C)(C)C)s/c1=N\C(=O)c1cc(F)ccc1C , respond with its melting point.
108 to 109 °C

Input Cc1cccnc1C(=O)/N=c1\sc(C(C)(C)C)c(C)n1CC1CC1 , output reported melting point.
88 to 89 °C

Consider the compound Cc1c(C(C)(C)C)s/c(=N\C(=O)c2cccc(I)c2)n1CC1CC1 and give its recorded melting point.
114 to 115 °C

Look up melting point of Cn1c(C(C)(C)C)c/c(=N\C(=O)c2cccc(Cl)c2Cl)n1CC1CCCC1 and report it.
168 to 169 °C

Provide only the value of recorded melting point for CC[C@H](C(=O)/N=c1\sc(C)c(C)n1CC1CC1)c1ccccc1 (racemic)
108 to 110 °C

Provide only the value of recorded melting point for Cc1c(C(C)(C)C)s/c(=N\C(=O)c2ccccc2I)n1C
83 to 85 °C

Note down melting point recorded for COc1cc(Cl)ccc1C(=O)/N=c1\cc(C(C)(C)C)n(C)n1CC1CC1
128 to 129 °C

Supply measured melting point of Cc1c(C(C)(C)C)s/c(=N\C(=O)c2cccc3cnccc23)n1CC1CC1 in your reply.
109 to 110 °C

Input Cc1c(C(C)(C)C)s/c(=N\C(=O)c2cc(Br)ccc2F)n1C , output reported melting point.
144 to 145 °C

Return reported melting point. Input compound: Cc1c(C(C)(C)C)s/c(=N\C(=O)c2ccccc2C(F)(F)F)n1CC1CC1
90 to 91 °C

Check the records and state melting point for Cc1s/c(=N\C(=O)c2cc(F)c(F)cc2Cl)n(CC2CC2)c1C
161 to 163 °C

Return reported melting point. Input compound: Cc1c(C(C)(C)C)s/c(=N\C(=O)c2ccccc2O)n1CC1CC1
178 to 180 °C

----------
# Test system: Jcl: ICR-series male mice
# protocol description: Writhing test with acetic acid in mouse
# Type: in vivo
# test parameters: orally administered 30 mg/kg, acetic acid i.p. one hour after administration
Give measured pain-related behavior inhibition rate for each item. Keep answers brief.
# unit: % | format: bare number

Give the measured pain-related behavior inhibition rate for COc1ccc(C(F)(F)F)cc1C(=O)/N=c1\cc(C(C)(C)C)sn1CC1CC1
44.8

Give pain-related behavior inhibition rate for Cn1c(C(C)(C)C)c/c(=N\C(=O)c2cccc(C(F)(F)F)c2F)n1CC1CC1
61.9

Dear colleague, please send me the reported pain-related behavior inhibition rate for Cc1c(C(C)(C)C)s/c(=N\S(=O)(=O)c2ccccc2C(F)(F)F)n1CC1CC1 when you can.
49.0

Determine its reported pain-related behavior inhibition rate: CC(C)(C)c1nn(CC2CC2)/c(=N/C(=O)c2nccc3ccccc23)s1
19.6

Specify pain-related behavior inhibition rate for COc1ccc(C(F)(F)F)cc1C(=O)/N=c1\sc(C(C)(C)C)c(C)n1CC1CC1 and stop.
59.9

Provide pain-related behavior inhibition rate value for the following compound: Cc1cccc(C(=O)/N=c2\sc(C(C)(C)C)c(C)n2CC2CC2)c1Br
93.0

----------
Kindly supply the reported IC50 values for the records listed here.
Note: unit nM is implicit; provide only the numeric part.

# return IC50 for Cc1cccc(C(=O)/N=c2\sc(C(C)(C)C)c(C)n2CC2CC2)c1C , test system: human CB1 receptor (Homo sapiens, UniProt P21554)
# Sequence (P21554 whole entry): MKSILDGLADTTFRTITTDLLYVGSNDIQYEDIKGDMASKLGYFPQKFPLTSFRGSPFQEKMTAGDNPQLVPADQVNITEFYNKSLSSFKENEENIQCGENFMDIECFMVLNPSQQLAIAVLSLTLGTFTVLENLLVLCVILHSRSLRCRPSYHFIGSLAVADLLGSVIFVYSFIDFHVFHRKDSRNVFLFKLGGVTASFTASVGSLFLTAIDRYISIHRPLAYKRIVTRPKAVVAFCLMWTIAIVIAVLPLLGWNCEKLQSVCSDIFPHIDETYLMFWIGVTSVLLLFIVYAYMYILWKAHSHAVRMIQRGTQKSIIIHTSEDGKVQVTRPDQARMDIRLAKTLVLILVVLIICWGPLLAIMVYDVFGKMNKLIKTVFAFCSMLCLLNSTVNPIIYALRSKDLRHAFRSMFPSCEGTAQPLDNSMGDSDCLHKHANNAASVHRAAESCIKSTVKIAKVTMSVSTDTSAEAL
61

System human CB1 receptor (Homo sapiens, UniProt P21554). Read-out IC50. Item Cc1c(C(=O)/N=c2\cc(C(C)(C)C)n(C)n2CCOC(C)C)cccc1C(F)(F)F . Report value.
279

Send back human CB1 receptor (Homo sapiens, UniProt P21554) IC50 of COc1ccc(C(=O)/N=c2\sc(C(C)(C)C)c(C)n2CC2CC2)c(OC)c1OC only.
435

State measured IC50 of the compound COc1cccc(C(=O)/N=c2\sc(C(C)(C)C)c(C)n2CC2CC2)c1OC with human CB1 receptor (Homo sapiens, UniProt P21554).
315

----------
readout type: melting point

Provide only the value of recorded melting point for COc1ccc(OC)c(CC(=O)/N=c2\sc(C(C)(C)C)c(C)n2CC2CC2)c1
89 to 91 °C

Look up and state reported melting point for Cc1c(C(C)(C)C)s/c(=N\C(=O)c2c(F)cccc2F)n1CC1CC1
123 to 124 °C

Give the reported value of melting point for this record: Cc1c(C(C)(C)C)s/c(=N\C(=O)c2cccnc2Cl)n1CC1CC1
124 to 125 °C

Let me know recorded melting point for Cc1c/c(=N\C(=O)c2cccc(C(F)(F)F)c2F)n(CCOC(C)C)n1C , thanks.
88 to 90 °C

Give recorded melting point. Cc1c(C(C)(C)C)s/c(=N\C(=O)c2cncc(Br)c2)n1CC1CC1
152 to 154 °C

For the compound O=C(/N=c1\cc(C(F)(F)F)ccn1CC1CC1)c1cccc(C(F)(F)F)c1F , give its reported melting point.
85 to 86 °C

Supply reported melting point belonging to this compound: Cc1ccc(C(=O)/N=c2\sc(C)c(C)n2CC2CC2)c(Br)c1
90 to 92 °C

Answer with reported melting point of Cc1s/c(=N\C(=O)c2cccc(Br)c2)n(CC2CC2)c1C
159 to 160 °C

Tell me melting point reported for CC(C)(C)c1nn(CC2CC2)/c(=N/C(=O)c2nccc3ccccc23)s1
89 to 90 °C

Read off the recorded melting point for COc1cccc(F)c1C(=O)/N=c1\sc(C(C)(C)C)c(C)n1CC1CC1
119 to 121 °C

Tell us which melting point value is on record for Cc1c(C(=O)O)s/c(=N\C(=O)c2cccc(C(F)(F)F)c2)n1CC1CC1
291 to 293 °C

Specify measured melting point for O=C(/N=c1\ccccn1CCc1ccccc1)c1cccc(C(F)(F)F)c1F .
117 to 118 °C

For the compound Cc1s/c(=N\C(=O)c2cc(C(F)(F)F)ccc2F)n(CC2CC2)c1C , give its measured melting point value.
122 to 123 °C

Name the recorded melting point of the item Cc1c(C(C)(C)C)s/c(=N\C(=O)c2cccnc2)n1C.Cl in your answer.
202 to 203 °C

Name the recorded melting point of the item COc1cc(C(=O)/N=c2\sc(C(C)(C)C)c(C)n2CC2CC2)cc(Cl)n1 in your answer.
127 to 128 °C

Give a short answer stating reported melting point for Cc1c(C(C)(C)C)s/c(=N\C(=O)c2cccc(C(F)(F)F)c2)n1CCN .
76 to 78 °C

For the compound CCOCCn1c(C)c(C(C)(C)C)s/c1=N\C(=O)c1cccc(C(F)(F)F)c1 , report melting point.
91 to 92 °C

Give melting point for O=C(/N=c1\ccccn1CC1CC1)c1cc(C(F)(F)F)ccc1F
127 to 127.5 °C

Respond only with melting point recorded for Cc1cccc(C(=O)/N=c2\sc(C(C)(C)C)c(C)n2CC2CC2)c1
132 to 134 °C

----------
# system name: human CB2 receptor (Homo sapiens, UniProt P34972)
# Construct: expressed in transfected cells
# Sequence (P34972 whole entry): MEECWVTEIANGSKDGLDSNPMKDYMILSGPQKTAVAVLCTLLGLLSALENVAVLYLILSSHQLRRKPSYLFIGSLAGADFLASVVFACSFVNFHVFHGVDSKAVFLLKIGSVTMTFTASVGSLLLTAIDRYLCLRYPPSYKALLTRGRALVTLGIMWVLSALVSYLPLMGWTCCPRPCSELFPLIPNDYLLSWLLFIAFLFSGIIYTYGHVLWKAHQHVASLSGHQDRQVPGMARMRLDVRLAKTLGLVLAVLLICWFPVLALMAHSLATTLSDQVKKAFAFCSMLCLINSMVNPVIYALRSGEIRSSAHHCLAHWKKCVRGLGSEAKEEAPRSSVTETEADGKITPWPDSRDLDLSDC
# protocol description: Human CB2 receptor binding inhibition test ([3H]CP-55,940, CHO membrane fractions)
# test parameters: [3H]CP-55,940, membrane fractions of CHO cells stably expressing human CB2 receptor, 25° C., 2 hours; read-out: CB2 IC50 (Inhibition of binding to human CB2 receptor)
Mark criterion met only for IC50 values smaller than 10 nM; exact matches and larger values are criterion not met.

In the record for Cc1c(C(C)(C)C)s/c(=N\C(=O)c2ccc(F)c(F)c2F)n1CC1CC1 , is IC50 less than 10 nM?
criterion not met

hey, is IC50 for Cc1c(C(C)(C)C)s/c(=N\C(=O)c2cccc(C(F)(F)F)c2Cl)n1CC1CC1 lower than 10 nM or not?
criterion met

# TODO verify IC50 < 10 nM strictly for this molecule: Cc1cc(Cl)ccc1C(=O)/N=c1\sc(C)c(C)n1CC1CC1
criterion met

IC50 under 10 nM? Item: Cc1c(Br)cc/c(=N\C(=O)c2cccc(C(F)(F)F)c2F)n1CC1CC1
criterion met

Just wondering, is IC50 of Cc1c(C(C)(C)C)s/c(=N\C(=O)c2cc(F)c(F)cc2F)n1CC1CC1 below 10 nM?
criterion met

In the record for Cc1cccc(C(=O)/N=c2\sc(C(C)(C)C)c(C)n2CC2CC2)c1 , is IC50 less than 10 nM?
criterion not met

Please determine if CC(C)(C)c1nn(CC2CC2)/c(=N/C(=O)c2nccc3ccccc23)s1 is below 10 nM in terms of IC50.
criterion not met

Dear colleague, could you confirm whether IC50 of O=C(/N=c1\ccc(Cl)cn1CC1CC1)c1cccc(C(F)(F)F)c1F falls below 10 nM? Thanks.
criterion met
